molecular target: full-length human GLP-1R with an N-terminal FLAG tag (human, UniProt P43220 24-463); assay: cell-based or functional assay
Starred links: 1 amine or outer side, 2 acyl side, 3 side chain; linkers in the order of their positions; H or OH if unused. Non-standard residues stand in square brackets, D forms with d. Groups on a side chain read outwards from the residue. No end group written: not given here. *: point of attachment. C18 diacid = O=C(O)CCCCCCCCCCCCCCCCC(=O)*; C17 diacid = O=C(O)CCCCCCCCCCCCCCCC(=O)*; γGlu = O=C(O)[C@H](CCC(=O)[*:2])N[*:1]; NMeY = CN[C@@H](Cc1ccc(O)cc1)C(=O)O; AEEA = NCCOCCOCC(=O)O; Aib = CC(C)(N)C(=O)O
For each of the binders below, state its Human GLP1R cAMP EC50, HEK293T.
Answers are plain numbers, in nM.

The cases that follow already have their Human GLP1R cAMP EC50, HEK293T on record.
[
  {
    "binder": "[NMeY][Aib]EGTFISDYSIAK([2OEGgEgE-C17 diacid])DR[Aib]AQ[Aib]NFVNWLLAQR-OH [Compound No. 7]",
    "quantity-measured": "Human GLP1R cAMP EC50, HEK293T",
    "readout-value": 589
  },
  {
    "binder": "[NMeY][Aib]EGTFISDYSI[Aib]LDR[Aib]AQ[Aib]K([2OEGgEgE-C18 diacid])FVNWLLAQSPSSGAPPPS-NH2 [Compound No. 90]",
    "quantity-measured": "Human GLP1R cAMP EC50, HEK293T",
    "readout-value": 72.4
  },
  {
    "binder": "[NMeY][Aib]EGTFISDYSI[Aib]LDRK([AEEA-AEEA-γGlu-γGlu-C17 diacid])AQ[Aib]NFVNWLLAQRPSSGAPPPS-NH2 [Compound No. 15]",
    "quantity-measured": "Human GLP1R cAMP EC50, HEK293T",
    "readout-value": 35.9
  },
  {
    "binder": "YXEGTFISDYSIXXDRXAQXNFVNWLLAQSPSSGAPPPS (N-methyl Tyr 1; Aib at 2,13,17,20; Lys(G5-C17 diacid) at 14; C-terminal OH) [Compound No. 95]",
    "quantity-measured": "Human GLP1R cAMP EC50, HEK293T",
    "readout-value": 17.4
  }
]

Next binder, please.
Problem: Give me measured Human GLP1R cAMP EC50, HEK293T, please, for this binder: Y[Aib]EGTFISDYSIALDKIAQ[Aib]K([AEEA-AEEA-γGlu-γGlu-C18 diacid])FVEWLLAQRG-OH [Compound No. 153]
Result: 6.76

The reported numbers originate from patent US20230143604A1.
